system: MS2 coat protein; experiment: apparent KD of MS2 coat protein, switch OFF state (with FMN for OFF switches, without FMN for ON switches); designed switch direction (-1 OFF switch, 1 ON switch): -1; higher = weaker reporter binding; settings: FMN input: 0 or 200 uM; Eterna round: R93 (includes R88 designs)
Everything with apparent KD of MS2 coat protein lower than 20 nM is 0 (no); everything else, including exactly 20 nM, is 1 (yes).

stdin: Hi team, for AACAGUACAGGAUAUACAUGAGGAUCACCCAUGUGACAGAAAUAAAACAAAAAUAAAAGUAGAAGGGUACUGGA [Ruby 42] , is the recorded apparent KD of MS2 coat protein at or above 20 nM?
stdout: 1 (yes)

stdin: Is apparent KD of MS2 coat protein at least 20 nM? Consider AGUACUACAGGAUAUACGAGGGAGGUCCACGUGAACCUUAUACAUGAGGAUCACCCAUGUAGAAGGGUAGUACA [Ex2 Design 108: Super Stable 8]
stdout: 0 (no)

stdin: Is the recorded value of apparent KD of MS2 coat protein equal to or greater than 20 nM for this sequence? AAAAAGGGAGGAUAUACAUGAGGAUCACCCAUGUGAAAGACGAAAAAGAGUCUAAAGGGUAGAAGGCCCAAAAA [65%, Moding Exclusion3-cac2, 10]
stdout: 1 (yes)

stdin: Say whether GAAAAGUGAGGAUAUUCGGAUAGGAAAACGAAAACCUAUCCGAAGAAGGCACAUGAGGAUCACCCAUGUGGAAA [Mat - Exaclusion 4 - Eli mod - D45] shows apparent KD of MS2 coat protein of 20 nM or more.
stdout: 1 (yes)

stdin: Exam item: decide whether the reported apparent KD of MS2 coat protein for AAAGGACGAGGAUAUACAUGAGGAUCACCCAUGUAAAAAGCAUAAUAAAAGAACUUAUGUAGAAGGCGUCCAAA [69%, Moding Meechl, 5] is at least 20 nM.
stdout: 1 (yes)

stdin: Evaluate AACUGACAUGAGGAUCACCCAUGUCAGGAUAUGACUUCGAAAAAUAAAAUAAACGAUGUCAGAAGGGACAUGGG [Design 68: Sub-opt O] : apparent KD of MS2 coat protein at minimum 20 nM?
stdout: 0 (no)

stdin: Tell me whether apparent KD of MS2 coat protein is at least 20 nM here: AAGAACGGAGGAUAUACAUGAGGAUCACCCAUGUAAAAGAAAGAAGGGAAAGAGAAAAGUAGAAGGCCGAAGAA [Usermaatre-setepenamun Pedubast]
stdout: 1 (yes)

* * *

system: MS2 coat protein; test: apparent KD of MS2 coat protein; designed switch direction (-1 OFF switch, 1 ON switch): -1; higher = weaker reporter binding; details: input ligand: none
QUANTITY: apparent KD of MS2 coat protein (nM)
Kindly provide the numeric value in nM only, without the unit symbol.

Per the records, this sequence ( CUGUUCCGUGUAGGAUAUGCAUAUUCUCAUUAUGCAGAAGGACAUGAGGAUCACCCAUGUAUGUUAUUAUCAUGUGUUACAUGC [Design 7] (Eterna round: R96, puzzle: Exclusion NG 1) ) has apparent KD of MS2 coat protein equal to 38.8

get_value(item= GUCGCGUGGGUGUGGGAGGACAUGAGGAUCACCCAUGUGACUACCAAGCUUUUUGCUCCUCUUAGGUCCAUGGGAAG [Random] (Eterna round: R97, puzzle: Sensor, turn-off variant 1) , readout=apparent KD of MS2 coat protein) returns 109

Record ACAUGAGGAUCACCCAUGUCUGGCUGGUCUGUUCCGGCUGUUGAGGAUAUAGUCCGGUGUUCGCGCUAGAAGGUGAGGGCUGGA [Aenatbe mod 43] (Eterna round: R96, puzzle: Exclusion NG 3) . Reported apparent KD of MS2 coat protein: 57

Data point: UGUCAGAUGGUAGGAUAUCCAUAUCGAGUGACCCUUUCUUAACAUGAGGAUCACCCAUGUCGGUGGGAGAAGGGCCGUAUGGUG [salish99_ExNG02_R04_032] (Eterna round: R96, puzzle: Exclusion NG 2) ; apparent KD of MS2 coat protein = 29.9

Noted for CAGUACUGAGGAUAUACAUGAGGAUCACCCAUGUGGUCCAGCUAGGAAACUAGCACGUGUAGAAGGCAGUACUG [Ex3: 840] (Eterna round: R96, puzzle: Exclusion 3) : its apparent KD of MS2 coat protein reads 45.7

The measured apparent KD of MS2 coat protein associated with AAAGAUGGAGGAUAUACAUGAGGAUCACCCAUGUAGAAAAAAAAUUGGGAAAAAGAAAGUAGAAGGCCAAAAAA [Ex 3 May 43] (Eterna round: R96, puzzle: Exclusion 3) reads 36.5

Lab note: measured apparent KD of MS2 coat protein of AGGUGCUUCUGGAAACAUGAGGAUCACCCAUGUUGAGUUAGCGAGGAUAUCGGUAACAAUUGUUAUGAGAAGGCGCAAACCAGA [Ex NG3 #36] (Eterna round: R96, puzzle: Exclusion NG 3) was 20.7

Memo: GUCAGACGAGGAUAUGAUCAAUAAUACAUGAGGAUCACCCAUGUAAUACUGAUCCAUGGAUCAGAAGGCGUCUGAC [E5/5-A4] (Eterna round: R97, puzzle: Exclusion 5) , reported apparent KD of MS2 coat protein: 15.4

get_value(item= ACAUUACAUGAGGAUCACCCAUGUGAGGAUAUGGAGCGAUAGUGUCCUGUCGCGUACACCAGAAGGCGCGGGUG [1st #49] (Eterna round: R97, puzzle: Exclusion 1) , readout=apparent KD of MS2 coat protein) returns 271

Kindly note the recorded apparent KD of MS2 coat protein for UACAUGAGGAUCACCCAUGUUUUGUCGUGUAUGGUAUUUAUCUAGGAUAUCAUUUGAUUUAUUUAUGAGAAGGAGAAUAUUAAU [JMF's solution 100] (Eterna round: R96, puzzle: Exclusion NG 3) , which is 29.8

Query GGCCUUCCGCGAGCUUUUUACAUGAGGAUCACCCAUGUGGUUUUUAGUCUUAUCCGGCCGGCCGUGUGGCCGGCCGG [-32.9, -53.8, A 12%] (Eterna round: R97, puzzle: Sensor, turn-off variant 1) yields apparent KD of MS2 coat protein of 30.4

Reported apparent KD of MS2 coat protein ( GCACGGUGAGGAUAUAUAAAUGGGCAUGUCGAGAACCGUUCACAUGAGGAUCACCCAUGUAGAAGGCGCCUGUG [Eternabot (L2) Solution 58] (Eterna round: R97, puzzle: Exclusion 2) ) = 49

Entry GUAAUUAAUGUAGGAUAUGCAAGGCGAACCUAAGCAGAAGGACAUGAGGAUCACCCAUGUAUUGCGGUCUGCGUUCUGAUCGCU [salish99_ExNG1_r4_010] (Eterna round: R96, puzzle: Exclusion NG 1) , apparent KD of MS2 coat protein reported as 17

Lab note: measured apparent KD of MS2 coat protein of AAAUAGAAUGAGGAUAUCGUAUUGUAUUUAGUGCGAGAAGGCAUUACAUGAGGAUCACCCAUGUUUUGUUGGGA [JR_Ex6_Sub003] (Eterna round: R97, puzzle: Exclusion 6) was 32.3

Entry under test: ACAGAGCAAGGAUAUGCCGGGCGUGACAUGAGGAUCACCCAUGUGAUGCCGGUACGUUUAGCAGAAGGUGCAGGCA [EX5 C.2] (Eterna round: R97, puzzle: Exclusion 5) . Its apparent KD of MS2 coat protein was 14.8

Documented apparent KD of MS2 coat protein of GGAUAUAACGUAGGAUAUCAGAGAAACAGACGAUGAGAAGGACGACAUGAGGAUCACCCAUGUGAUCUAUCAAUAUUAUACAUG [Prohibition 98 - Jieux - Exclusion NG 1] (Eterna round: R96, puzzle: Exclusion NG 1) : 712

apparent KD of MS2 coat protein recorded for this sequence, GCACGGAGUGUAGGAUAUUAGUGCGAUUAGCACUGAGAAGGACAUGAGGAUCACCCAUGUGCUACCUCAAUUAGCCUUCCGUGC [Eli exng1 - 035] (Eterna round: R96, puzzle: Exclusion NG 1) , is 19.7

* * *

test system: MS2 coat protein; assay: apparent KD of MS2 coat protein; higher = weaker reporter binding; conditions: Eterna round: R107; input ligand: theophylline 20 uM
QUANTITY: apparent KD of MS2 coat protein (nM)
Give a bare numeral; the unit nM is implied.

// field: apparent KD of MS2 coat protein; key: CUGCCAUGCAGAGAUACCAGUGAGCUCAAAACAUGAGGAUCACCCAUGUAAAUUGCCGAUCACCCUUGGCAGCUCUGCAUGGCAG [}=%#^] ; value = 10.3

Looking up UAGGUGAUCUUCAACGGAAAACGUUGUGAUACCAGCCAACAAUACGGCCCUUGGCAGCACAUGAGGAUCACCCAUGUGUACACCG [Vetizaatdi] , I found its apparent KD of MS2 coat protein recorded as 48.7

The sequence CGGACAUGAGGAUCACCCAUGUACACUGAAGGAGCGUCGAGAACGACAGGUAGGUCGCAGGUUGAGGAUGGUGAUGCUCAGGUAG [Exclusion Arginine A GF 3] showed apparent KD of MS2 coat protein equal to 64.7

The measured apparent KD of MS2 coat protein associated with UACAUGAGGAUCACCCAUGUAUUGCCGGUACGAGGACCGGUACGGCCGCCACUCGGAGCAUGAGGAUCACCCAUGUGCUGCUAUG [Same State Trypophan A GF 24] reads 67.1

Lab book: apparent KD of MS2 coat protein of AGAUAACAUGGUUUAAUAAGUUAAACUGAUACCAGUGUAUAUAAUCACCCUUGGCAGCAGCAACAUGAGGAUCACCCAUGUAAUA [JR_SSTheophyA_Sub013] noted as 19.9

Given item UCACAUGAGGAUCACCCAUGUAAAGUUGAAGGAGCGAUCAUUAGGUCAGGUAGGUCGCAACACAUGAGGAUCACCCAUGUUGUCC [DOUBLE!!! :-D] , the value recorded as its apparent KD of MS2 coat protein is 49.9

Looking up ACAUGAGGAUCACCCAUGUGUGUAAAUCCUCGAGGACCGGUACGGCCGCCACUCGAUCGAGUGUAAGUUGAAUGUAACAUUCAAC [whbob_SS_trypto A_2s8] , I see its apparent KD of MS2 coat protein listed as 118
